# target-system: Carbonic anhydrase 12 (Homo sapiens, UniProt O43570)
# Sequence (O43570 whole entry, the tested form may be a part): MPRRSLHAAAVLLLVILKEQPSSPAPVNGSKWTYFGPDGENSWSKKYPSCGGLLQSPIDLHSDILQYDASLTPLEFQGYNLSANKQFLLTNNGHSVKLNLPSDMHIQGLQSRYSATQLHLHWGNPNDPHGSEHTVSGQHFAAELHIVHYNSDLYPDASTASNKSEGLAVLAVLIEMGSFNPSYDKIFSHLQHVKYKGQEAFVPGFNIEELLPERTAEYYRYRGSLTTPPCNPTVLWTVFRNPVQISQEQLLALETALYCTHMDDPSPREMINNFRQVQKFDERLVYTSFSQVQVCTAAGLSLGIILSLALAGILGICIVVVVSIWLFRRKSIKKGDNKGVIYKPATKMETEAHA
# experimental-details: Inhibition of human recombinant catalytic domain CA12
pKi: −log10 of the molar value.
measured-parameter: pKi

{"compound": "NS(=O)(=O)O [SULFAMATE]", "pKi": 3.15}
{"compound": "OB(O)c1ccccc1 [PHENYLBORONIC ACID]", "pKi": 3.10}
{"compound": "NS(N)(=O)=O [SULFAMIDE]", "pKi": 3.08}

---

# target-system: Carbonic anhydrase 9 (Homo sapiens, UniProt Q16790)
# experimental-details: Inhibition of human recombinant catalytic domain CA9
measured-parameter: pKi
Please express pKi as -log10 of the molar concentration.

*Q* Fill in the blank: the reported pKi of NS(=O)(=O)O [SULFAMATE] is ____.
*A* 4.04

---

# target-system: Carbonic anhydrase 14 (Homo sapiens, UniProt Q9ULX7)
# Sequence (Q9ULX7 whole entry): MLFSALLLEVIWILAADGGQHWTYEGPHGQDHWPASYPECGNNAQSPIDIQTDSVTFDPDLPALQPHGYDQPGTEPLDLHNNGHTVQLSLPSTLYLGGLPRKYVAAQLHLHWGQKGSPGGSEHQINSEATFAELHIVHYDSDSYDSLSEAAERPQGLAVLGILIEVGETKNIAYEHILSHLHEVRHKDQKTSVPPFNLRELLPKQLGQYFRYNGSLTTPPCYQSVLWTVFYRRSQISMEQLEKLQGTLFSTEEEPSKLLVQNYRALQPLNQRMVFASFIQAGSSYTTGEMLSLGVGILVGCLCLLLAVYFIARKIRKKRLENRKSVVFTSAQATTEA
# experimental-details: Inhibition of human recombinant full length CA14
pKi: −log10 of the molar value.
measured-parameter: pKi

{"molecule": "NS(=O)(=O)O [SULFAMATE]", "measured-parameter": "pKi", "measured": 2.96}

I = NS(N)(=O)=O [SULFAMIDE]
II = OB(O)c1ccccc1
*Q* Between I and II , whose measured pKi reads higher? State your choice using its label.
*A* II
(II: 4.04, I: 3.12)
